Hey, just so you know, these numbers are from patent US20130064815A1.

- METHOD_SUMMARY: annexin V / PI flow cytometry after proteasome inhibition
- Type: cell-based, human
- CONDITION_PARAMETERS: human
Where a SMILES comes first, the peptide text is derived from it. The star is where a group is joined. Cbz = O=C(OCc1ccccc1)*
QUANTITY_KIND: cytotoxicity at 24 h, 10 μM

compound="CC(C)C[C@@H](C=O)NC(=O)[C@H](CC(C)C)NC(=O)[C@H](CC(C)C)NC(=O)OCc1ccccc1 [MG132] (Cbz-Leu-Leu-Leu-aldehyde)" value=~50%
